Tested on: SK-MEL-5
Experiment: NCI tumour cell line growth inhibition, 48 h
Activity calls are given as the source filed them. Rule as the data show it: active = GI50 up to about 1.1 µM and inactive = higher.
Possible outcomes: active, inactive

1. C[C@]12CCC(=O)C(O)=C1CC[C@@H]1C2CC[C@]2(C)NC(=O)CCC12 (stereo partly specified)	inactive
2. C/N=N/N(C)C(=O)NC	inactive
3. O=C(O)C1(Nc2ccc(Cl)cc2)CCCC1	inactive
4. COC(=O)[C@H](C)N(C)C(=O)[C@H](C)N1[C@@H](c2ccccc2)COC1(C)C	inactive
5. O=C(Nc1nc2ncn(CCI)c2c(=O)[nH]1)c1ccccc1	inactive
6. NC(=S)N/N=C1\C(=O)Nc2c(Cl)cc(Cl)cc21	inactive
7. FC(F)(F)c1cc(Cl)cnc1N/N=C(/c1ccccc1)c1ccccn1	inactive
8. COc1cc(C(=O)N[C@H]2CCc3cc(OC)c(OC)c(OC)c3-c3ccc(SC)c(=O)cc32)cc(OC)c1OC	active
9. Cc1ccc(C(=O)N(Cc2ccccc2)Cc2ccccc2)cc1/N=N/N(C)C	inactive
10. NC(N)=NCCC(O)(P(=O)(O)O)P(=O)(O)O	inactive
11. CC1=NN(c2nc(N)nc(/C(C#N)=C\c3ccc(-c4ccc([N+](=O)[O-])cc4)o3)n2)C(C)(C)C1	inactive
